The following compounds are listed with their measured melting point values.

COMPOUND	melting point
COc1c(OCCO)ccc2c1N=C(/C=C(\O)c1cccnc1)N1CCN=C21.Cl	215 °C (dec.)
O/C(=C\C1=Nc2c(CN3CCOCC3)cccc2C2=NCCN12)c1cccnc1	198 to 202 °C (dec.)
O=C(NC1=Nc2ccccc2C2=NCCN12)C(F)(F)C(F)(F)F	210 to 211 °C
O=C(NC1=Nc2cc(O)ccc2C2=NCCN12)c1cccnc1	289 °C
COc1cc(C(=O)NC2=Nc3ccccc3C3=NCCN23)cc(OC)c1C	248 °C (dec.)
Cl.Nc1ccc(C(=O)NC2=Nc3ccccc3C3=NCCN23)cn1	290 °C (dec.)
O=C(NC1=Nc2ccccc2C2=NCCN12)c1csc([N+](=O)[O-])c1	269 to 270 °C
Cc1nc(C)c(C(=O)NC2=Nc3cc(N4CCOCC4)ccc3C3=NCCN23)s1	233 °C (dec.)
COc1cncc(C(=O)NC2=Nc3ccccc3C3=NCCN23)c1.Cl	272 °C (dec.)
O/C(=C\C1=Nc2cc(Cl)ccc2C2=NCCN12)c1cccnc1 [Example 1-116]	226 °C
COc1c(OCCN2CCCC2)ccc2c1N=C(/C=C(\O)c1cccnc1)N1CCN=C21	204 to 205 °C
CN(C)c1ccc(C(=O)NC2=Nc3ccccc3C3=NCCN23)cn1	249 °C (dec.)
COc1ccccc1C(=O)NC1=Nc2ccccc2C2=NCCN12	185 to 187 °C
O/C(=C\C1=Nc2cc(Cl)ccc2C2=NCCN12)c1cccnc1 [Example 1-117]	280 °C (dec.)
CCn1nc(C)cc1C(=O)NC1=Nc2cc(N3CCOCC3)ccc2C2=NCCN12	232 °C
Cc1ccc2c(c1)N=C(NC(=O)c1cccs1)N1CCN=C21	182 °C
CC(=O)Nc1cccc(C(=O)NC2=Nc3ccccc3C3=NCCN23)c1.O=C(O)C(F)(F)F	253 °C (dec.)
Cc1cc(C(=O)NC2=Nc3ccccc3C3=NCCN23)cnc1N	246 to 247 °C
